# Test system: LXRa:RXRa (NR concentration 270 nM, RXRa partner concentration 90 nM)
# methodDescription: PBM binding z-score (relative to random genomic background probes); higher = stronger binding; sequences stand for … in GC…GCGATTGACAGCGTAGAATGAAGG
Assign class by PBM binding z-score: not lower than 1 means MET; lower than 1 means NOT MET.

Exercise: Can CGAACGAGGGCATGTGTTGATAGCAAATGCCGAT be said to have PBM binding z-score at or above 1?
Key: NOT MET

Exercise: Does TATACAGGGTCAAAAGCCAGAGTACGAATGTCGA have a reported PBM binding z-score of at least 1?
Key: MET

Exercise: # check: PBM binding z-score of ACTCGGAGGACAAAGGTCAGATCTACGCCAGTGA is greater than or equal to 1
Key: MET

Exercise: Confirm if PBM binding z-score reported for the sequence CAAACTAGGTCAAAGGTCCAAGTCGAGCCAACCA is 1 or above.
Key: MET

Exercise: Say whether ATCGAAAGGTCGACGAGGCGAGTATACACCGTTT shows PBM binding z-score of 1 or more.
Key: MET

Exercise: Quick check, PBM binding z-score >= 1? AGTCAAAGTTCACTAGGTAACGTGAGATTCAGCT
Key: MET

Exercise: Hi team, for CAGCCTAGGCCAGGGCCAGTATAGGAGGAACGTT , is the recorded PBM binding z-score at or above 1?
Key: NOT MET

Exercise: In plain terms: is recorded PBM binding z-score at least 1 for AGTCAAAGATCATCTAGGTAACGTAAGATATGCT ?
Key: NOT MET

Exercise: Quick check: does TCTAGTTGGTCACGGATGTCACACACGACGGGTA have PBM binding z-score greater than or equal to 1?
Key: NOT MET

Exercise: Say whether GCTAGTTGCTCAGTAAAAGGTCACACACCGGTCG shows PBM binding z-score of 1 or more.
Key: MET

Exercise: // inclusive: PBM binding z-score at least 1? input: ATCTCTAGGTAAGAGTCAGTTCAGTGAAGAACGC
Key: NOT MET

Exercise: // inclusive: PBM binding z-score at least 1? input: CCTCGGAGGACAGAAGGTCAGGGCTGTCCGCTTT
Key: MET

---

# Tested on: LXRa:RXRa (NR concentration 270 nM, RXRa partner concentration 90 nM)
# methodDescription: PBM binding z-score (relative to random genomic background probes); higher = stronger binding; sequences stand for … in GC…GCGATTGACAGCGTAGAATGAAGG
readout: PBM binding z-score
// no unit string in output, number only

Exercise: Need PBM binding z-score of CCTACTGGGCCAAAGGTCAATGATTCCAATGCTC , thanks.
Key: 4.39

Exercise: # PBM binding z-score lookup, item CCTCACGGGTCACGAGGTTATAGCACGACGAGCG
Key: 4.19

Exercise: Need PBM binding z-score, item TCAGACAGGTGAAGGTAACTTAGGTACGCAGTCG
Key: 2.01

Exercise: Please give the measured PBM binding z-score for this sequence: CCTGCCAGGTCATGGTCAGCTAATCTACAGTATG
Key: 3.04

Exercise: Find the recorded PBM binding z-score belonging to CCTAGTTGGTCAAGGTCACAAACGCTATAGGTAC and report it.
Key: 3.32

Exercise: Find the recorded PBM binding z-score belonging to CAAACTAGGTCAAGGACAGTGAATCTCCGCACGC and report it.
Key: 2.6

Exercise: For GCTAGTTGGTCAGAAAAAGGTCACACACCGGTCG , what is its reported PBM binding z-score?
Key: 3.7

Exercise: Field request: PBM binding z-score | item: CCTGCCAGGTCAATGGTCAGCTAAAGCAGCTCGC
Key: 2.51

Exercise: Suppose we examine the sequence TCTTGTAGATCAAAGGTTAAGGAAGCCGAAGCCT ; what PBM binding z-score value has been reported?
Key: 1.94

Exercise: Entry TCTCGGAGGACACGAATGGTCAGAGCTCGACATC : reported PBM binding z-score = ?
Key: 0.0169

Exercise: Give the measured PBM binding z-score of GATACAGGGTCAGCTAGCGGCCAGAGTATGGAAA .
Key: 2.67

Exercise: Would you kindly share the measured PBM binding z-score for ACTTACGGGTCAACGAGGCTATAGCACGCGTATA ?
Key: 4.24
